assay.summary: Conversion (release) of prodrug salts to parent compound in HEPES buffer pH 7.4
Format: in vitro ADME
conditions: HEPES pH 7.4, 37 °C, 12 h; 720 min
endpoint.name: Release rate (conversion to Compound 1)
Just the number plus its unit, please.

CN(C)C[C@@H]1C(=O)O[C@H]2[C@H]1CC[C@@]1(C)C[C@]13CC[C@@](C)(O)[C@H]23 [Compound 42]; 52.3%
CN(C)C[C@@H]1C(=O)O[C@H]2[C@H]1CC[C@@]1(C)C[C@]13CC[C@@](C)(O)[C@H]23 [Compound 20]; 59.1%
CN(C)C[C@@H]1C(=O)O[C@H]2[C@H]1CC[C@@]1(C)C[C@]13CC[C@@](C)(O)[C@H]23 [Compound 41]; 53.2%
CN(C)C[C@@H]1C(=O)O[C@H]2[C@H]1CC[C@@]1(C)C[C@]13CC[C@@](C)(O)[C@H]23 [Compound 21]; 51.9%

// next entry
Inquiry: Need Release rate (conversion to Compound 1), item CN(C)C[C@@H]1C(=O)O[C@H]2[C@H]1CC[C@@]1(C)C[C@]13CC[C@@](C)(O)[C@H]23 [Compound 40]
Reply text: 50.2%
